Molecular target: T1, recombinant human VEGF165 (human, UniProt P15692-4 27-191)
T1 construct: also called hVEGF165; rhVEGF165
T1 sequence (P15692 other isoform, or with tags, fused parts or gaps limits assumed): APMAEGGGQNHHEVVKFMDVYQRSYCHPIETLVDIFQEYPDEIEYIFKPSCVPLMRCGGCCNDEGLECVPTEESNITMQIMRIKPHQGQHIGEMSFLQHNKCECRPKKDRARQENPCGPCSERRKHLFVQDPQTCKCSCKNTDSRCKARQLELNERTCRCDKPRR
Assay: VEGF/VEGFR2 competition AlphaScreen
measurement-kind: pIC50
pIC50 here: minus log base 10 of the concentration, concentration in moles per litre.

Worked examples, 2 binders total:
VEGFBII021 (VHH, biparatopic bivalent VHH in one chain; also called VEGFBII23B04-40GS-5B05) EVQLVESGGGLVQTGDSLRLSCEVSGRTFSSYSMGWFRQAQGKEREFVVAISKGGYKYDSVSLEGRFTISKDNAKNTVYLQINSLKPEDTAVYYCASSRAYGSSRLRLADTYEYWGQGTQVTVSSGGGGSGGGGSGGGGSGGGGSGGGGSGGGGSGGGGSGGGGSEVQLVESGGGLVQPGGSLRLSCVASGIRFMSMAWYRQAPGKHRELVARISSGGTTAYVDSVKGRFTISRDNSKNTVYLQMNSLKAEDTAVYYCNTFSSRPNPWGAGTQVTVSS; 11.05
VEGFBII024 (VHH, biparatopic bivalent VHH in one chain; also called VEGFBII23B04-40GS-86H09; VEGFBI024) EVQLVESGGGLVQTGDSLRLSCEVSGRTFSSYSMGWFRQAQGKEREFVVAISKGGYKYDSVSLEGRFTISKDNAKNTVYLQINSLKPEDTAVYYCASSRAYGSSRLRLADTYEYWGQGTQVTVSSGGGGSGGGGSGGGGSGGGGSGGGGSGGGGSGGGGSGGGGSEVQLVESGGGLVQAGGSLRLSCTASGSAFKSYRMGWFRRTPGKEDEFVASISWTYGSTFYADSVKGRFTMSRDKAKNAGYLQMNSLKPEDTALYYCAAGAQSDRYNIRSYDYWGQGTQVTVSS; 10.92

Form field pIC50, entry VEGFBII025 (VHH, biparatopic bivalent VHH in one chain; also called VEGFBII10E07-40GS-23B04) EVQLVESGGGLVQAGGSLRLSCAASGRTFSNYAMGWFRQAPGKERVLVADISSSGINTYVADAVKGRFTISRDNAKNTVYLQMNSLKPEDTAVYYCAASAWWYSQMARDNYRYWGQGTQVTVSSGGGGSGGGGSGGGGSGGGGSGGGGSGGGGSGGGGSGGGGSEVQLVESGGGLVQTGDSLRLSCEVSGRTFSSYSMGWFRQAQGKEREFVVAISKGGYKYDSVSLEGRFTISKDNAKNTVYLQINSLKPEDTAVYYCASSRAYGSSRLRLADTYEYWGQGTQVTVSS : 10.29

Form field pIC50, entry VEGFBII023 (VHH, biparatopic bivalent VHH in one chain; also called VEGFBII23B04-40GS-10E07; VEGFBI023) EVQLVESGGGLVQTGDSLRLSCEVSGRTFSSYSMGWFRQAQGKEREFVVAISKGGYKYDSVSLEGRFTISKDNAKNTVYLQINSLKPEDTAVYYCASSRAYGSSRLRLADTYEYWGQGTQVTVSSGGGGSGGGGSGGGGSGGGGSGGGGSGGGGSGGGGSGGGGSEVQLVESGGGLVQAGGSLRLSCAASGRTFSNYAMGWFRQAPGKERVLVADISSSGINTYVADAVKGRFTISRDNAKNTVYLQMNSLKPEDTAVYYCAASAWWYSQMARDNYRYWGQGTQVTVSS : 10.42

Form field pIC50, entry VEGFBII022 (VHH, biparatopic bivalent VHH in one chain; also called VEGFBII23B04-9GS-5B05) EVQLVESGGGLVQTGDSLRLSCEVSGRTFSSYSMGWFRQAQGKEREFVVAISKGGYKYDSVSLEGRFTISKDNAKNTVYLQINSLKPEDTAVYYCASSRAYGSSRLRLADTYEYWGQGTQVTVSSGGGGSGGGSEVQLVESGGGLVQPGGSLRLSCVASGIRFMSMAWYRQAPGKHRELVARISSGGTTAYVDSVKGRFTISRDNSKNTVYLQMNSLKAEDTAVYYCNTFSSRPNPWGAGTQVTVSS : 11.15
